The molecules below have reported IC50 for Dihydrofolate reductase (Homo sapiens).
State the answer as a number, implicitly in µM.

Q. What value of measured IC50 is listed for `CCc1c(Sc2ccccc2)[nH]c2nc(N)nc(N)c12` ?
A. 18

Q. Try the molecule `CCc1c(Sc2ccc([N+](=O)[O-])cc2)[nH]c2nc(N)nc(N)c12`
A. 5.8

Q. Try the molecule `CCc1c(Sc2ccc(Br)cc2)[nH]c2nc(N)nc(N)c12`
A. 2.7

Q. Try the molecule `CCc1c(Sc2cc(OC)ccc2OC)[nH]c2nc(N)nc(N)c12`
A. 5.8

Q. Try the molecule `CCc1c(Sc2cccc3ccccc23)[nH]c2nc(N)nc(N)c12`
A. 2.9

Q. Try the molecule `CCc1c(Sc2ccc3ccccc3c2)[nH]c2nc(N)nc(N)c12`
A. 6

Q. Try the molecule `CCc1c(Sc2cccc3cccnc23)[nH]c2nc(N)nc(N)c12`
A. 1.4

Q. Try the molecule `CCc1c(Sc2ccc(Cl)cc2Cl)[nH]c2nc(N)nc(N)c12`
A. 1.4

Q. Try the molecule `CCc1c(Sc2ccc(C(=O)N[C@@H](CCC(=O)O)C(=O)O)cc2)[nH]c2nc(N)nc(N)c12`
A. 0.066

Q. Try the molecule `CCc1c(Sc2ccc(OC)cc2)[nH]c2nc(N)nc(N)c12`
A. 2.9
